- TARGET OF ASSAY: N-terminal bromodomain of human BRD4 (residues 44–168) (human, UniProt O60885 44-168)
- EXPERIMENT DESCRIPTION: ITC
Where no end group is shown, it is not given here.
ENDPOINT NAME: Kd

In: Could you tell me which Kd is on file for KAVTK(Ac)AQK(Ac)KDGK [di-acetylated H2B peptide K20ac/K23ac] ?
Out: > 500 µM
